Test system: SF-295 CNS
Test: NCI tumour cell line growth inhibition, 48 h
recorded.endpoint: TGI

Looking up COc1cc(C(Cc2ccccc2)NC(C)=O)oc(=O)c1 (stereo not drawn) , I found its TGI recorded as > 100 µM

// TGI value for CC1(C)COC(c2cccnc2/C=N/O)=N1 : > 100 µM

Lookup result for O=c1[nH]c(=O)n(C2OC(CO)C(O)C2O)cc1NN=NCc1ccccc1 (stereo not drawn) ; measured TGI: > 100 µM

---

System: SN12C renal
Assay: NCI tumour cell line growth inhibition, 48 h
recorded.endpoint: TGI

Value of measured TGI for the entry COc1ccc2c3c([nH]c2c1[N+](=O)[O-])C(C)=NCC3 : > 100 µM

TGI reported for this compound Cc1ccc(C)c(C2=C(c3cn(C)c4ccccc34)C(=O)NC2=O)c1 : > 25 µM

The value of TGI measured for the compound CC(=O)O[C@H]1C[C@H]2[C@@H](OC(C)=O)/C=C3\C[C@](C)(C(=O)[C@H](O)C(=C1C)C2(C)C)[C@@H](O)C[C@@H]3OC(=O)[C@H](O)[C@H](c1ccccc1)N(C)C turned out to be > 100 µM

response.value for O=c1cc(N2CCOCC2)[nH]c(=O)n1-c1ccc(F)cc1 (field: TGI) = > 100 µM

Documented TGI of CC(=O)Nc1ccc(C(=O)NN2C(=O)CSC2c2ccc([N+](=O)[O-])cc2)cc1 (stereo not given) : > 100 µM

---

System: DU-145 prostate
Experiment: NCI tumour cell line growth inhibition, 48 h
recorded.endpoint: TGI

The reported TGI value, DU-145 prostate, for Cc1nc2c(-c3cnc(N)nc3)nc(N3CCOCC3)nc2n1C(C)C reads > 100 µM

The reported TGI value, DU-145 prostate, for COc1ccc(C(C)=O)cc1N1C(=O)C2C(C1=O)C1(c3ccccc3)C(=O)C2(c2ccccc2)C(c2ccc(C)cc2)=C1c1ccc(C)cc1 (stereo not drawn) reads > 100 µM

CCOC(=O)CCCn1c(SC)nc2[nH]cc(-c3ccccc3)c2c1=O on DU-145 prostate gives TGI = > 100 µM

---

Tested on: MALME-3M melanoma
Assay: NCI tumour cell line growth inhibition, 48 h
I'd appreciate it if you could supply TGI values for the items below.
The response must be a number in µM with no trailing unit.

Lab note: CC1=CC(C)C/C=C/C2C3OC3(C)C(C)C3C(Cc4c[nH]c5ccccc45)NC(=O)C23C(=O)C=CC(=O)C1O (configuration not stated) gave TGI of 4.19

Just so you know, measured TGI for [Cl][Hg][c]1cc(Br)cc(Br)c1 came out at 3.28

Record summary for CC(=O)c1cccc(NC(=O)C(=O)NNc2n[nH]c(=S)n2N)c1 : reported TGI = 5.18

---

System: OVCAR-4 ovarian
Test: NCI tumour cell line growth inhibition, 48 h
recorded.endpoint: TGI

Simply: OC[C@H]1C[C@](O)(c2ccc(Cl)cc2)[C@@H](c2ccc(Cl)cc2)O1 , OVCAR-4 ovarian, TGI = > 100 µM

Case CC(=O)Nc1ccc(C(=O)NN2C(=O)CSC2c2ccc([N+](=O)[O-])cc2)cc1 (stereo unspecified) , OVCAR-4 ovarian, TGI recorded as > 100 µM

Fill in: OVCAR-4 ovarian TGI for CCOC(=O)CCCn1c(SC)nc2[nH]cc(-c3ccccc3)c2c1=O = 80.8 µM

Bench note, OVCAR-4 ovarian: entry C=C(CCC/C(C)=C/C=C/[C@]1(C)CCCc2ccoc21)CC(=O)O , its TGI = > 100 µM

Field TGI (OVCAR-4 ovarian), entry N#Cc1nc(Nc2cccc3ccccc23)sc1N : > 100 µM

// returns TGI for Nc1ccc(Oc2ccc(C34CC5CC6C3CC3CC4C(C5)C6(c4ccc(Oc5ccc(N)cc5)cc4)C3)cc2)cc1 with OVCAR-4 ovarian; value = > 100 µM

Response field TGI (OVCAR-4 ovarian) for item Cn1cc(CO)c2c1C(=O)C=C(N1CC1)C2=O : 0.0917 µM

Log: OVCAR-4 ovarian, compound OCCCCCCCCCCCOc1ccc(C2OCC3(CO2)COC(c2ccc(OCCCCCCCCCCCO)cc2)OC3)cc1 (stereo unspecified) , TGI = > 50 µM

OVCAR-4 ovarian assay, compound COc1ccc(-n2cc(-c3cc(OC)c(OC)c(OC)c3)c(C(=O)C(F)(F)F)c2C)cc1 , recorded TGI = > 100 µM

Noted TGI for COC(=O)c1cc2c(s1)C(=O)c1ccccc1-2 , tested on OVCAR-4 ovarian: > 100 µM

The compound Cc1cc(C)n(C(=C(C(Cl)=C(Cl)Cl)[N+](=O)[O-])n2nc(C)cc2C)n1 on OVCAR-4 ovarian: TGI was 7.47 µM

Lab note: compound CC(=O)O[C@H]1C[C@H]2[C@@H](OC(C)=O)/C=C3\C[C@](C)(C(=O)[C@H](O)C(=C1C)C2(C)C)[C@@H](O)C[C@@H]3OC(=O)[C@H](O)[C@H](c1ccccc1)N(C)C tested on OVCAR-4 ovarian; recorded TGI was > 100 µM

Recorded TGI for COCC1OC(Sc2ccccc2)C(O)C(OC)C1OC (stereo unspecified) on OVCAR-4 ovarian was > 100 µM

Fill in: OVCAR-4 ovarian TGI for CCCCCCCCCC1(N=[N+]=[N-])C(=O)c2ccccc2N(C)C1=O (stereo unspecified) = > 100 µM

The value of TGI recorded for CN(C)c1ccc(C(C=C2c3ccccc3Sc3ccccc32)=C(C#N)C#N)cc1 when tested on OVCAR-4 ovarian reads 50.1 µM

Case COC(=O)CCC1=CCC2(SC)C(=O)Nc3cccc1c32 (stereo unspecified) , OVCAR-4 ovarian, TGI recorded as > 100 µM

Known value: OVCAR-4 ovarian TGI of the compound CC(=O)N(C)c1ccc(Nc2cc(C)[nH]c3ccc4ncnc4c23)cc1 equals 34 µM

# TGI measured on OVCAR-4 ovarian for item COC(=O)C1=C(O)c2cc(OC)c(OC)cc2C(c2ccc(OC)c(OC)c2)C1 (stereo unspecified) = > 100 µM

Sample O=C(O)c1ccc(Nc2c3ccccc3nc3ccccc23)cc1 , system: OVCAR-4 ovarian. Its TGI is > 100 µM

TGI for OVCAR-4 ovarian with input CC(C)(Cl)C(Br)CCC(C)(Cl)C(Br)CBr (stereo unspecified) equals 87.3 µM

Item COc1cnc2c(c1)C(=O)c1c-2n(CCCNC(C)C)c(=O)c2cc(Cl)ccc12 ; assay system OVCAR-4 ovarian; TGI reported as 2.7 µM

Summary line: CC(C)c1ccc2c(c1)CC[C@@H]1[C@@](C)(C(=O)O)CCC[C@]21C , OVCAR-4 ovarian, reported TGI = 10.8 µM

Value (TGI, OVCAR-4 ovarian) for record OC1(C(F)(F)F)OCCN=C1C(F)(F)F (stereo unspecified) = > 100 µM

Cc1ccc(Cc2c(=O)[nH]nc3ccccc23)cc1 tested on OVCAR-4 ovarian gave TGI: > 100 µM

Record CC1(c2cccs2)CC(c2cccs2)=C(C#N)C(=C(C#N)C#N)N1 (stereo unspecified) has OVCAR-4 ovarian TGI equal to 32.3 µM

Entry Oc1cn(-c2ccc(Cl)cc2)nc1-c1nnc(-c2ccccc2)o1 , tested on OVCAR-4 ovarian, has a reported TGI of > 100 µM

---

Test system: TK-10 renal
Assay: NCI tumour cell line growth inhibition, 48 h
recorded.endpoint: TGI

Form field TGI, entry O=[N+]([O-])c1ccc(C2=Nn3cnnc3SC2)o1 : > 100 µM

Entry under test: Oc1c(C2=NNC(c3ccc(Cl)cc3Cl)C2)ccc2ccccc12 (stereo not drawn) . Its TGI was > 100 µM

In plain terms, O=C1NC(=O)C(c2c[nH]c3ccccc23)=C1c1cnc[nH]1 has a documented TGI of > 100 µM

---

Tested on: SK-MEL-2 melanoma
Assay: NCI tumour cell line growth inhibition, 48 h
Kindly supply the reported TGI values for the records listed here.

TGI for CCN(CC)CC1CCCCCCCCCCC1=O (configuration not stated) is > 100 µM

The recorded TGI for CN(C)CCCNC(=O)c1cc2[nH]c3c(cnc4ccc([N+](=O)[O-])cc43)c(=O)c2n1C is > 100 µM

So, C=C(CCC/C(C)=C/C=C/[C@]1(C)CCCc2ccoc21)CC(=O)O ? Its TGI was > 100 µM

Item: Cc1cc([N+](=O)[O-])ccc1Nc1cccc(Cl)c1C | TGI: 29 µM

For CN(Cc1cnc2nc(N)nc(N)c2n1)c1ccc(C(=O)NC(CCC(=O)NCCC(P(=O)(O)O)P(=O)(O)O)C(=O)O)cc1 (configuration not stated) the compound record lists TGI as > 100 µM

The reported TGI of the compound CN=c1nc2sc3c(c2c(NC(=S)NC)s1)CCCC3 was > 100 µM

// sample Cc1c([N+](=O)[O-])ccc2c(NCCCN(C)C)ccnc12 , its TGI was 31.8 µM

Taken from PubChem BioAssay (NCI).
